# target_or_test_system: T1, Peptide-14 (cysteine pairing not given here; also: biotinylated (site not given here))
# T1 peptide: LDFCKIYDWPICHL
# assay_notes: ELISA, Fab on captured biotin-peptide
Where no end group is shown, it is not given here.
Hi! Just check whether EC50 is below 70 nM. Below gives Criterion met, equal or above gives Criterion not met.

{"columns": ["binder", "label_value"],
 "data": [
  ["TBD-11 (HC R98A) (Fab, V domains shown, Fab; also called HC R98A mutant) VH: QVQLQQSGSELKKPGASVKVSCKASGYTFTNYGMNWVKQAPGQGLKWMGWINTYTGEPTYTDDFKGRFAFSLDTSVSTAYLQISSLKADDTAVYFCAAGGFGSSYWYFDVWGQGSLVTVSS VL: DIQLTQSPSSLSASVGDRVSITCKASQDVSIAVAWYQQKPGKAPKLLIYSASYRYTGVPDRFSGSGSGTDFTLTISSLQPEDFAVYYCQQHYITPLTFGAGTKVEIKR", "Criterion not met"],
  ["TBD-21 (HC F108A) (Fab, V domains shown, Fab; also called HC F108A mutant) VH: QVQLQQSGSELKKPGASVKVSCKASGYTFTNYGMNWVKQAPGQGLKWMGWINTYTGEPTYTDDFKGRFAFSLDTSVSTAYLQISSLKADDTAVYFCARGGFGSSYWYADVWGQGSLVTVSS VL: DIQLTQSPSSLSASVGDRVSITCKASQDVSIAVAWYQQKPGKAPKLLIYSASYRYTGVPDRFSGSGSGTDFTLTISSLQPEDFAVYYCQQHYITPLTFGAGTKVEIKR", "Criterion met"],
  ["TBD-6 (LC I93A) (Fab, V domains shown, Fab; also called LC I93A mutant) VH: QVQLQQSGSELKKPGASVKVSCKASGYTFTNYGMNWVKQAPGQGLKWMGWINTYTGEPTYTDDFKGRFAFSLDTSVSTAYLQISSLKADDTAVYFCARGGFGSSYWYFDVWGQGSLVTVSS VL: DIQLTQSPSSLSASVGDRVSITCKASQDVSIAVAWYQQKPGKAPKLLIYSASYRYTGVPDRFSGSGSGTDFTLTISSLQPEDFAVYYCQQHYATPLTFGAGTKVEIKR", "Criterion not met"],
  ["TBD-22 (HC D109A) (Fab, V domains shown, Fab; also called HC D109A mutant) VH: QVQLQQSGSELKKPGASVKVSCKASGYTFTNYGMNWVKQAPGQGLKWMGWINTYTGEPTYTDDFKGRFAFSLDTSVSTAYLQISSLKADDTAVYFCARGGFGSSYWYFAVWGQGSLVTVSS VL: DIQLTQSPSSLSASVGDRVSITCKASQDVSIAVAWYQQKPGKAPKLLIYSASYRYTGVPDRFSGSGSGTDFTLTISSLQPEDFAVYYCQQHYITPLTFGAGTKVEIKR", "Criterion met"],
  ["TBD-1 wt (Fab, V domains shown, Fab; the heavy chain entry is VH-CH1; also called wild-type anti-TROP2 Fab (hRS7); TROP2 Fab) VH: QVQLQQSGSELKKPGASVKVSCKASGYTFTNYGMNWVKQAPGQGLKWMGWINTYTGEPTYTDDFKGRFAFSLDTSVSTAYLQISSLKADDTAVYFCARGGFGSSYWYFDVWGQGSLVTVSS VL: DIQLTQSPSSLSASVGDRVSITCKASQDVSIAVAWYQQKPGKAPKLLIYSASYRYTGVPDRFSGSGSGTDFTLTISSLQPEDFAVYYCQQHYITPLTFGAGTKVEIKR", "Criterion not met"]
]}
